# test name: Toxic dose was determined after (ip) administration of a dose of 1200 mg/kg in mice at 1000-rad-gamma-radiation for 30 mins
# Assay type: toxicity, organism-based
# Parameters: dose 1200 mg/kg
# measurement conditions: mouse, in vivo
measured property: LD50 at 0.5 h

Tell me its LD50 at 0.5 h given C[n+]1c(CC(=S)[S-])cccc1CC(=S)[S-].[I-].[Na+].[Na+] as the entry.
> 600 mg/kg

----------
# test name: Toxic dose was determined after (ip) administration of a dose of 18.8 mg/kg in mice at 1000-rad-gamma-radiation for 30 mins
# Assay type: toxicity, organism-based
# Set-up: dose 18.8 mg/kg
# measurement conditions: mouse, in vivo
measured property: LD50 at 0.5 h (mg/kg)
Give your result in mg/kg as a bare value.

COC(CN/C(=C/c1ccc2ccccc2[n+]1C)SC)OC.[I-] 30
CS/C(=C\c1cccc[n+]1C)N1CCOCC1.[I-] 50
CSC(=Cc1cccc(C)[n+]1C)SC.[I-] 50
CS/C(=C\c1cccc[n+]1C)N1CCN(C)CC1.[I-] 60

Let us examine a further case.
Input CSC(=Cc1cccc[n+]1C)SC.[I-] , output reported LD50 at 0.5 h.
30

----------
# test name: Toxic dose was determined after (ip) administration of a dose of 150 mg/kg in mice at 1000-rad-gamma-radiation for 30 mins
# Assay type: toxicity, organism-based
# Set-up: dose 150 mg/kg
# measurement conditions: mouse, in vivo
measured property: LD50 at 0.5 h (mg/kg)
# value in mg/kg; strip the unit string

CSC(=Cc1ccc2ccccc2[n+]1C)SC.[I-] 300

Answer with reported LD50 at 0.5 h of Cc1ccc2c(ccc(CC(=S)[S-])[n+]2C)c1
225

----------
# test name: Toxic dose was determined after (ip) administration of a dose of 9.38 mg/kg in mice at 1000-rad-gamma-radiation for 30 mins
# Format: toxicity, organism-based
# Parameters: dose 9.38 mg/kg
# measurement conditions: mouse, in vivo
measured property: LD50 at 0.5 h (mg/kg)
Respond numerically; units are mg/kg and should not be typed.

State its LD50 at 0.5 h: CS/C(=C\c1ccc2cc(C)ccc2[n+]1C)N1CCOCC1.[I-]
15

----------
# test name: Toxic dose was determined after (ip) administration of a dose of 4.7 mg/kg in mice at 1000-rad-gamma-radiation for 30 mins
# Assay type: toxicity, organism-based
# Parameters: dose 4.7 mg/kg
# measurement conditions: mouse, in vivo
measured property: LD50 at 0.5 h (mg/kg)
I only need the number, in mg/kg, no unit after it.

Tell me its LD50 at 0.5 h given CCCCCCSC(=Cc1cccc[n+]1C)SCCCCCC.[I-] as the entry.
5

Source listed as ChEMBL document CHEMBL1123594.
